Overview of recorded MCF7 pHER3 % inhibition for various binders
Molecular target: Human HER3, endogenous, on human cancer cell lines (SK-Br-3, MCF7, BT-474) (human, UniProt P21860 20-1342)
Sequence (P21860 20-1342): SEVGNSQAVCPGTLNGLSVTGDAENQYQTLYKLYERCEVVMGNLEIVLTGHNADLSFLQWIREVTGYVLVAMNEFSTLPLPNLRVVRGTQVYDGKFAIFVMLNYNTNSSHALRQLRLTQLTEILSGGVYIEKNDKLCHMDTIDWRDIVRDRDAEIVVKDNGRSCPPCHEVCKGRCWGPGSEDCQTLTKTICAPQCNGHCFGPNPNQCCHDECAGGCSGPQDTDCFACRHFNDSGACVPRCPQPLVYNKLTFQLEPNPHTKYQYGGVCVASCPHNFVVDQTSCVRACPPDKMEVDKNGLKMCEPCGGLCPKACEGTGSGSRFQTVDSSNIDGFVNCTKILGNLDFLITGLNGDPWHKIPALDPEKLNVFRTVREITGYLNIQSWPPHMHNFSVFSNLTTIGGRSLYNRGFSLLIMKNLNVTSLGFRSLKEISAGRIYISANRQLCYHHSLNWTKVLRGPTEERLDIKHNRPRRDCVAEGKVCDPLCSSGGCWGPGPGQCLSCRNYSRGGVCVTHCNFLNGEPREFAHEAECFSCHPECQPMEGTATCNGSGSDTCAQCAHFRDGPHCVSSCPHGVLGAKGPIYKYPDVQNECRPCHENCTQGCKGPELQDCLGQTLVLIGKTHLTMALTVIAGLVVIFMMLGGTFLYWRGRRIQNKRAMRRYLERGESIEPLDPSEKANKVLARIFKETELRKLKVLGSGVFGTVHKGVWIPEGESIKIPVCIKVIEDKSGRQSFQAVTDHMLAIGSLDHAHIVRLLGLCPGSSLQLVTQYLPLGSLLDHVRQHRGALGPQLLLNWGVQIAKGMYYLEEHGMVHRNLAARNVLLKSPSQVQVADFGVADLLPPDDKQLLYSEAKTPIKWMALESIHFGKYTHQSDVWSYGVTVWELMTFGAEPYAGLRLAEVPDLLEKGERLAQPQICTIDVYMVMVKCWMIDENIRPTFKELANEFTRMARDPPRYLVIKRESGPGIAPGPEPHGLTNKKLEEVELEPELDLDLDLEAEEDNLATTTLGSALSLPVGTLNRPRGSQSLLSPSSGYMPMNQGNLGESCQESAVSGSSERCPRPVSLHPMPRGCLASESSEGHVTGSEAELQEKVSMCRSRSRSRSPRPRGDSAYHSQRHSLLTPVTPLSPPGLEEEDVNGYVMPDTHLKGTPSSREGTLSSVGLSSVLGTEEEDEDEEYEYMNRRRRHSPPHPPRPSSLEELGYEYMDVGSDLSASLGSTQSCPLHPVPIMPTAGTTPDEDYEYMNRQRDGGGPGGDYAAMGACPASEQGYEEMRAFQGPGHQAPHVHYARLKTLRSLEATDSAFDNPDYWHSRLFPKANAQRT
Assay: cell-based or functional assay
Numeric answer only, unit % assumed.

Binder: MOR13755 (antibody, human IgG1, kappa, V domains shown, tested as IgG) VH: QVQLVQSGAEVKKPGESLKISCKGSGYSFTTYWVAWVRQMPGKGLEWMGIIYPGQSDTIYSPSFQGQVTISADKSISTAYLQWSSLKASDTAMYYCARVHIIQPPSAWSYNAMDVWGQGTLVTVSS VL: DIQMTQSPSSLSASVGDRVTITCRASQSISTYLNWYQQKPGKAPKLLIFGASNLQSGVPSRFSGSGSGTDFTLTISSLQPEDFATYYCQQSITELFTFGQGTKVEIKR
Measure Unit: %
MCF7 pHER3 % inhibition: 79
//
Binder: MOR13869 (antibody, human IgG1, kappa, V domains shown, tested as IgG) VH: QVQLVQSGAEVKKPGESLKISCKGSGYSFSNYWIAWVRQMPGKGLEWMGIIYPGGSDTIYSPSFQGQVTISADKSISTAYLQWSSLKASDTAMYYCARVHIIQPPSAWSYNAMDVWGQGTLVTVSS VL: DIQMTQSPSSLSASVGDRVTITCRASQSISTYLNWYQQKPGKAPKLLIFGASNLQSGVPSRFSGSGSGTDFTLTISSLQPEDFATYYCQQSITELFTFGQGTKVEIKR
Measure Unit: %
MCF7 pHER3 % inhibition: 64

Note: attention shifts to another entry.
Would you mind telling me what MCF7 pHER3 % inhibition value was observed for MOR12616 (antibody, human IgG1, kappa, V domains shown, tested as IgG) VH: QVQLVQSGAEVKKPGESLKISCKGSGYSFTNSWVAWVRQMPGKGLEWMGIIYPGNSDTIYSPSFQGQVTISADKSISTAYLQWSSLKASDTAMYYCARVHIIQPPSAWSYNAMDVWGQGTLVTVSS VL: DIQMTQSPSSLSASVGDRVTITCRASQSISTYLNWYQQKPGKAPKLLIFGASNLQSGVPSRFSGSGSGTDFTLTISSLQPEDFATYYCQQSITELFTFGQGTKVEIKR ?
76
